Assay: counter-screen for Nox1 inhibitors: inhibitors of luminol chemiluminescence (AID 1823)
Details: HRP/luminol/H2O2 chemiluminescence counterscreen; at 6.7 µM
Among all 16,000 compounds or so, about 70 (0.4%) were called active. No stated cut-off is given here; in the data, active means inhibition above about 75%; inactive means the rest. This is one part of a sample in which actives are shown more often than they occur.
Answer with one of the outcomes given here: active, inactive

Q) Could you kindly confirm the outcome this assay logged for `CC(C)[C@H]1COC(c2cccc(C3=N[C@@H](C(C)C)CO3)n2)=N1` ?
A) inactive

Q) Could you kindly confirm the outcome this assay logged for `CC(=O)N1c2ccccc2C=Cc2ccccc21` ?
A) inactive

Q) Could you kindly confirm the outcome this assay logged for `Cn1cc(Br)c(-c2cccc(NC(=O)c3ccccc3Cl)c2)n1` ?
A) inactive

Q) Could you kindly confirm the outcome this assay logged for `CCOC(=O)c1c(C)nn(-c2ncccc2NC(=O)Nc2cccc(Cl)c2Cl)c1C` ?
A) inactive

Q) Could you kindly confirm the outcome this assay logged for `FC(F)(F)c1cccc(-n2c(-c3ccncc3)n[nH]c2=S)c1` ?
A) active
